The measured values listed here are drawn from patent US20120157434A1.

- Test system: methicillin-resistant Staphylococcus aureus (MRSA)
- experimental protocol: MIC by agar dilution against a clinical isolate of MRSA
- Assay type: cell-based
- experimental conditions: Staphylococcus aureus, read-out: MRSA, MIC, μg/mL
measure name: MIC (µg/mL)
The answer is to be given in µg/mL; state only the numeric part.

# input Which value of MIC has been reported for `CC(=O)NC[C@@H]1OC(=O)N2c3ccc(-c4ccc(-c5nnn(C)n5)nc4)cc3C[C@@H]12` in the records?
# output 0.5

# input Which value of MIC has been reported for `CC(=O)NC[C@@H]1OC(=O)N2c3ccc(-c4ccc(N5CCOC5=O)nc4)cc3C[C@@H]12` in the records?
# output 0.25

# input Which value of MIC has been reported for `CC(=O)NC[C@@H]1OC(=O)N2c3ccc(-c4ccc(C(=O)Cn5ccnc5)nc4)cc3C[C@@H]12` in the records?
# output 1

# input Which value of MIC has been reported for CC(=O)NC[C@@H]1OC(=O)N2c3ccc(-c4ccc(C5=NOC(CO)C5)nc4)cc3C[C@@H]12 (stereo partly shown) in the records?
# output 1
